Target: Serine/threonine-protein kinase Nek1 (Homo sapiens)
Test: Inhibition of human NEK1 using myelin basic protein as substrate assessed as residual activity at 1 uM in presence of [gamma-33P]-ATP by radiometric hotspot kinase assay relative to control
readout label: Activity (%)

# example entries with known answers
smiles string | Activity (%)
CCCCNc1nccc(Nc2cc(C)[nH]n2)n1 | 86.9
Cc1ccc(-c2c[nH]c3ncc(-c4cccc(C#N)c4)cc23)cc1 | 72.8
Cc1cc(Nc2ccnc(Nc3ccccc3)n2)n[nH]1 | 74.8

I: COC(=O)c1cccc(-c2cnc3[nH]cc(-c4cccc([N+](=O)[O-])c4)c3c2)c1
II: COc1cccc(-c2c[nH]c3ncc(-c4cccc(C#N)c4)cc23)c1
III: Cc1cc(Nc2ccnc(N(C)c3ccccc3)n2)n[nH]1
Lookup: Put the molecules in ascending order of Activity. Put the labels in the order asked and list them.
Found: I, II, III
(I: 28.5%, II: 41.1%, III: 89.8%)
